Tested on: gastric emptying
experiment: Rat gastric emptying of a test meal (prokinetic activity)
Assay type: in vivo, rat (male Charles River, Crl: COBS, CD (SD) BR)
details: 1.0 mg/kg ip, 30 min before test meal, rats sacrificed 60 min after meal
observation type: % increase in gastric emptying (%)
Give bare numbers, in %.

Example cases with answers are listed next.
• COc1cc(N)c(Cl)cc1C(=O)NC1CN2CCC1CC2 (centres unmarked) [ZACOPRIDE] = 11.8
• COc1cc(N)c(Cl)cc1C(=O)NC1CCN(CCCOc2ccc(F)cc2)CC1OC (centres unmarked) [Cisapride, cisapride] = 9.8
• CCN(CC)CCNC(=O)c1cc(Cl)c(N)cc1OC [METOCLOPRAMIDE, metoclopramide] = 2.6
• COc1cc(N)c(Cl)cc1C(=O)NC1CCN2CCCC1C2 (centres unmarked) [BRL-24924] = 29.8

-- ask Enter reported % increase in gastric emptying observed with gastric emptying for COc1cc(N)c(Cl)cc1C(=O)N[C@H]1[C@H]2C[C@@H]3CN(C2)C[C@@H]31 (relative stereo) [Example 12]
-- reply 45.3

====

Can you tell me ED50 for the items I'm about to list?
tgt: 5-HT3 (Canis lupus familiaris, UniProt Q1HHV2)
Construct: from tissue; host or cells: living beagle dogs (in vivo, i.v. dosing); endogenous receptor
Sequence (Q1HHV2 24-483): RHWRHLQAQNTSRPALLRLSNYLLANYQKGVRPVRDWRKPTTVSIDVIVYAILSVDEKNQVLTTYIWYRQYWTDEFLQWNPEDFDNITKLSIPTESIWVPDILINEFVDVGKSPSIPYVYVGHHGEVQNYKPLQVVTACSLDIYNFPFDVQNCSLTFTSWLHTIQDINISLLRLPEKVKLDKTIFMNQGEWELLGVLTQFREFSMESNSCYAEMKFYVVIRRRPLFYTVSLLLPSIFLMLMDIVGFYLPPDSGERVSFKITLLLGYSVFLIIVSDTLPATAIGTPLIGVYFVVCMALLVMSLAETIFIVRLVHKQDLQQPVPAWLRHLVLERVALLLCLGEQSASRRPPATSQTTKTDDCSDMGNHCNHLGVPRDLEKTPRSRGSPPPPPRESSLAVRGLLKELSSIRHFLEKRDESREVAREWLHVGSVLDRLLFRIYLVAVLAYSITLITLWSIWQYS
experiment: Antiemetic activity against cisplatin-induced emesis in beagle dogs
Format: in vivo
details: dog, iv, i.v. 30 min before and 2 h after cisplatin 3 mg/kg i.v., emetic episodes counted 5 h, read-out: ID50 (50% inhibition of the number of emetic episodes)
Where a name gives a salt, the structure may show the parent alone.
Put your answer as a value accompanied by its unit after it.

• COc1cc(N)c(Cl)cc1C(=O)N[C@H]1[C@H]2C[C@@H]3CN(C2)C[C@@H]31 (relative stereo) [Example 12] = 0.03 mg/kg

Respectfully, I request ED50 for each entry included below.
1. CN1[C@@H]2CC[C@H]1C[C@@H](OC(=O)c1c[nH]c3ccccc13)C2 [ICS 205-930]
2. Cn1nc(C(=O)N[C@H]2[C@H]3C[C@@H]4CN(C3)C[C@@H]42)c2ccccc21 (relative stereo) [Example 27, hydrochloride]
3. COc1cc(N)c(Cl)cc1C(=O)NC1CCN2CCCC1C2 (centres unmarked) [BRL-24924]
4. COc1cc(N)c(Cl)cc1C(=O)NC1CCN(CCCOc2ccc(F)cc2)CC1OC (centres unmarked) [Cisapride, cisapride]

-- reply
["0.01 mg/kg", "0.1 mg/kg", "0.1 mg/kg", "0.6 mg/kg"]

Just for reference, patent US5140023A is where these values come from.
